Assay: Repeated dose 28 day toxicokinetics
Conditions: male, Sprague Dawley, rat, in vivo, po, 6 mg/kg
property.name: AUC(0-inf) (ng·h/mL)
Give bare numbers, in ng·h/mL.

Quick note, AUC(0-inf) for CN[C@]1(c2ccccc2Cl)CCCCC1=O [esketamine] landed at 103

* * *

Test: Repeated dose 28 day toxicokinetics
Details: female, Sprague Dawley, rat, in vivo, po, 10 mg/kg, t1/2, Day 28, female rats, 10 mg/kg oral
property.name: half-life (min)
Numbers only, in min.

Quick note, half-life for CN[C@]1(c2ccccc2Cl)CCCCC1=O landed at 24

* * *

Hi there, I'd appreciate the recorded half-life for every entry that follows.
Assay: Single dose crossover study in healthy volunteers, pharmacokinetics
Conditions: both, human, plasma, po, 20 mg, t1/2, geometric mean, plasma analyte after single dose esketamine 20 mg oral solution

Some compounds with recorded half-life:
{"compound": "N[C@]1(c2ccccc2Cl)CCCCC1=O [(S)-norketamine]", "result": "8.88 h"}
{"compound": "CN[C@]1(c2ccccc2Cl)CCCCC1=O", "result": "2.91 h"}

Continue with the compound presented below.
Quick note, half-life for N[C@]1(c2ccccc2Cl)CCC[C@H](O)C1=O landed at 7.83 h
